Please respond with reported EC50 for every item in the list.
- Target Or Test System: human TLR7 (Homo sapiens)
- Construct: TLR7 in pUNO vector, blasticidin selection
- Test Description: Human TLR7 Assay (SEAP reporter in HEK293 cells)
- Experimental Context: HEK293 cell line expressing human TLR7 and pNiFty2-SEAP reporter, overnight incubation at 37° C., 0.1% DMSO; read-out: hTLR7 EC50
Hi, when you answer, please include the unit after the number. Thanks!

>  <Compound>
CCOC(=O)COc1cccc(CN(CCCn2c(CCOC)nc3c(N)nc4ccccc4c32)C(=O)CN(C)C)c1 [Example 33]

>  <Assay Value>
0.177 µM

$$$$
>  <Compound>
CCOCc1nc2c(N)nc3ccccc3c2n1CCCN(Cc1cccc(OC(C)(C)C(=O)OC)c1)C(=O)CN1CCCC1 [Example 171]

>  <Assay Value>
0.56 µM

$$$$
>  <Compound>
CCN(CC)CC(=O)N(CCCn1c(CCOC)nc2c(N)nc3ccccc3c21)Cc1cccc(OC2(C(=O)OC)CC2)c1 [Example 79]

>  <Assay Value>
0.0518 µM

$$$$
>  <Compound>
CCN(C)CC(=O)N(CCCn1c(CCOC)nc2c(N)nc3ccccc3c21)Cc1cccc(OCC(=O)OC2CCCC2)c1 [Example 111]

>  <Assay Value>
0.123 µM

$$$$
>  <Compound>
CCN(C)CC(=O)N(CCCn1c(CCOC)nc2c(N)nc3ccccc3c21)Cc1cccc(OCC(=O)OC(C)C)c1 [Example 114]

>  <Assay Value>
0.0678 µM

$$$$
>  <Compound>
CCN(CC)CC(=O)N(CCCn1c(CCOC)nc2c(N)nc3ccccc3c21)Cc1ccc(F)c(OCC(=O)OC)c1 [Example 120]

>  <Assay Value>
0.278 µM

$$$$
>  <Compound>
CCN(C)CC(=O)N(CCCn1c(CCOC)nc2c(N)nc3ccccc3c21)Cc1ccc(OC)c(OCC(=O)OC(C)C)c1 [Example 76]

>  <Assay Value>
0.211 µM

$$$$
>  <Compound>
CCOCc1nc2c(N)nc3ccccc3c2n1CCCN(Cc1cccc(OCC(=O)OC(C)C)c1)C(=O)CN(CC)CC [Example 161]

>  <Assay Value>
0.262 µM

$$$$

I need EC50 for every entry listed below, if you could help.
1. CCOC(=O)COc1ccc(CN(CCN2CCCCC2)C(=O)NCCCCn2c(CCOC)nc3c(N)nc4ccccc4c32)cc1 [Example 131]
2. CCOC(=O)COc1cccc(CN(CCN2CCCCC2)C(=O)NCCCCn2c(CCOC)nc3c(N)nc4ccccc4c32)c1 [Example 130]
3. CCN(CC)CC(=O)N(CCCn1c(CCOC)nc2c(N)nc3ccccc3c21)Cc1ccc(F)c(OCC(=O)OC(C)C)c1 [Example 118]
4. CCN(CC)CC(=O)N(CCCn1c(CCOC)nc2c(N)nc3ccccc3c21)Cc1cccc(OCC(=O)OC(C)C)c1C [Example 147]
5. CCOC(=O)COc1cccc(CN(CCCn2c(CCOC)nc3c(N)nc4ccccc4c32)C(=O)CN(C)C)c1F [Example 95]

Result ::
0.0375 µM
0.0244 µM
0.0774 µM
0.183 µM
0.447 µM

----------
- Target Or Test System: human TLR7 (Homo sapiens, UniProt Q9NYK1)
- Construct: TLR7 in pUNO vector, blasticidin selection
- Sequence (Q9NYK1 27-1049): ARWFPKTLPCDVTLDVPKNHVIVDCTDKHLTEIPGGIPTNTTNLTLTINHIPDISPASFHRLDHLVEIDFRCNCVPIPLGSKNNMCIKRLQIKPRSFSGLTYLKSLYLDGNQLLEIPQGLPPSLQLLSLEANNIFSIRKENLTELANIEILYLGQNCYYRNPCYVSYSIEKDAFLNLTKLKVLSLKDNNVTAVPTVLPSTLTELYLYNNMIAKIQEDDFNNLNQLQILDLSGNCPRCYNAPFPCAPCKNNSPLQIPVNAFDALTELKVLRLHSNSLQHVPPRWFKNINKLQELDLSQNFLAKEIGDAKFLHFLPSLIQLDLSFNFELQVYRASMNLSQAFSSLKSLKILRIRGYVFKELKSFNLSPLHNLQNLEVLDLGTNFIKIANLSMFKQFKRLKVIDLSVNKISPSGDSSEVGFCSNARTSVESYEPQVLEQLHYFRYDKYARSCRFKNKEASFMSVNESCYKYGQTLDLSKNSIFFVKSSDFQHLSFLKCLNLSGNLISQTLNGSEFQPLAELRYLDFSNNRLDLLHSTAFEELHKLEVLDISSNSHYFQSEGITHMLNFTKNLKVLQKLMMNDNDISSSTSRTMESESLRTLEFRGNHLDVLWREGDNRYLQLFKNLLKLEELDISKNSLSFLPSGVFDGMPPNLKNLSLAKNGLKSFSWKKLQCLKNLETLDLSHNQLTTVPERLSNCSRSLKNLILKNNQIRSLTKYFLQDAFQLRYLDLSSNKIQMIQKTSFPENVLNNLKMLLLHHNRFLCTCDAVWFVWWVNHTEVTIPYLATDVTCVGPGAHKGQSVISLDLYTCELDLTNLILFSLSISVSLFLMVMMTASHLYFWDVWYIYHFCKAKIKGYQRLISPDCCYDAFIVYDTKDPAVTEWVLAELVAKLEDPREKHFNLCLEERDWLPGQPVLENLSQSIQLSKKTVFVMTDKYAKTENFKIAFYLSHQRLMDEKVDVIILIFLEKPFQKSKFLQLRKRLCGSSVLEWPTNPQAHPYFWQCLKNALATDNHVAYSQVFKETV
- Test Description: Human TLR7 Assay (SEAP reporter in HEK293 cells)
- Experimental Context: HEK293 cell line expressing human TLR7 and pNiFty2-SEAP reporter, overnight incubation at 37° C., 0.1% DMSO; read-out: hTLR7 EC50
Give EC50 for every item shown.
Numbers only, in nM.

>  <Compound>
CCOCc1nc2c(N)nc3ccccc3c2n1CCCN(Cc1cccc(OC(C)(C)C(=O)OCC)c1)C(=O)CN1CCCC1 [Example 170]

>  <Observed Property>
EC50

>  <Assay Value>
521

$$$$
>  <Compound>
CCOCc1nc2c(N)nc3ccccc3c2n1CCCN(Cc1cccc(OC(C)(C)C(=O)OCC)c1)C(=O)CN(CC)CC [Example 162]

>  <Observed Property>
EC50

>  <Assay Value>
96.4

$$$$
>  <Compound>
CCOCc1nc2c(N)nc3ccccc3c2n1CCCN(Cc1cccc(OCC(=O)OC(C)C)c1F)C(=O)CN(C)C [Example 167]

>  <Observed Property>
EC50

>  <Assay Value>
716

$$$$
>  <Compound>
CCN(C)CC(=O)N(CCCn1c(CCOC)nc2c(N)nc3ccccc3c21)Cc1cccc(OCC(=O)OC(C)C)c1F [Example 98]

>  <Observed Property>
EC50

>  <Assay Value>
228

$$$$

Consider now this further compound.
Query :: Return reported EC50; argument: CCCCc1nc2c(N)nc3ccccc3c2n1CCCN(CCCN1CCOCC1)Cc1cccc(OCC(=O)OC)c1 [Example 21]
Result :: 787

----------
- Target Or Test System: human TLR7 (Homo sapiens)
- Construct: TLR7 in pUNO vector, blasticidin selection
- Sequence (Q9NYK1 27-1049): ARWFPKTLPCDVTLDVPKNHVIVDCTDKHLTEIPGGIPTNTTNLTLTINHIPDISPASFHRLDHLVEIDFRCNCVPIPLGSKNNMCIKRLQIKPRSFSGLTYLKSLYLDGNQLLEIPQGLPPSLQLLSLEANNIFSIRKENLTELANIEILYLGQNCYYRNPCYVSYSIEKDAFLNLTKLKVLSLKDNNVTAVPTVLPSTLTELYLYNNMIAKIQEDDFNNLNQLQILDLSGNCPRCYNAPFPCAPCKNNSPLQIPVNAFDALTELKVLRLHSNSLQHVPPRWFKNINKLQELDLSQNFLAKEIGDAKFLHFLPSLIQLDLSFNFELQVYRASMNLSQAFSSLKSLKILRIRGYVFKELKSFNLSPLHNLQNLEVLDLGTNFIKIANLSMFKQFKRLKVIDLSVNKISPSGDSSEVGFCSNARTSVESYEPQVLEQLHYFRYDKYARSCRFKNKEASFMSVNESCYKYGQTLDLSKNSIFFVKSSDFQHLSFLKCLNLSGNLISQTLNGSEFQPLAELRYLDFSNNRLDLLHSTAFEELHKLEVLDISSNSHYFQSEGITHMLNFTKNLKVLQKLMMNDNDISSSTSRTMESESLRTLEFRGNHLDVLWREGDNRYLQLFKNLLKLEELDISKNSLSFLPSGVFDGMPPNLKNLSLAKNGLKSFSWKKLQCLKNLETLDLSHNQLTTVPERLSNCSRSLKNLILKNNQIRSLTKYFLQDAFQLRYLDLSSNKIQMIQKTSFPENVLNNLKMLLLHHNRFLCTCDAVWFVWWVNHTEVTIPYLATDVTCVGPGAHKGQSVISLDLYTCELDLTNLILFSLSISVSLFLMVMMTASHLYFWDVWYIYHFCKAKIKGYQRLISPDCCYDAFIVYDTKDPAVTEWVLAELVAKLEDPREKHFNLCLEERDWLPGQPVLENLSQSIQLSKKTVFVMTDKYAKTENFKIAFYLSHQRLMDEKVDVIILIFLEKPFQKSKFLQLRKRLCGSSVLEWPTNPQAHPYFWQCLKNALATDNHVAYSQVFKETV
- Test Description: Human TLR7 Assay (SEAP reporter in HEK293 cells);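 further: Read-out is secreted alkaline phosphatase made under an NFkB/ELAM-1 composite promoter, reporting TLR7-triggered NFkB activation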
- Experimental Context: HEK293 cell line expressing human TLR7 and pNiFty2-SEAP reporter, overnight incubation at 37° C., 0.1% DMSO; read-out: hTLR7 EC50
Please respond with reported EC50 for every item in the list.
Numbers only, in nM.

Solved cases below.
>  <Chem Smiles>
CCN(CC)CC(=O)N(CCCn1c(CCOC)nc2c(N)nc3ccccc3c21)Cc1cccc(OCC(=O)OC2CCC2)c1

>  <EC50 [nM]>
56.1

$$$$
>  <Chem Smiles>
COCCc1nc2c(N)nc3ccccc3c2n1CCCCNC(=O)N(CCN1CCCCC1)Cc1ccc(F)c(OCC(=O)OC)c1

>  <EC50 [nM]>
79.2

$$$$
>  <Chem Smiles>
COCCc1nc2c(N)nc3ccccc3c2n1CCCN(Cc1cccc(OC(C)(C)C(=O)OC)c1)C(=O)CN(C)C

>  <EC50 [nM]>
181

$$$$
>  <Chem Smiles>
CCOC(=O)COc1cccc(CN(CCCCn2c(CCOC)nc3c(N)nc4ccccc4c32)C(=O)NCCN(C)C)c1

>  <EC50 [nM]>
42.9

$$$$

Query :: Entry under review: COCCc1nc2c(N)nc3ccccc3c2n1CCCCN(CCN(C)C)Cc1cccc(OC(C)(C)C(=O)OC)c1 . Reported EC50?
Result :: 16.6
